Quick reference: Population Fragmented Nuclei (%) of the listed items.
Tested on: HEK-293T
Protocol Description: Multiplex assay against HEK293T
Assay type: toxicity, cell-based
Run Parameters: human, 24 h, 10 µM, compound concentration 10 uM, replicate 1
Write the numeric value and append its unit.

Example entries begin here.
Molecule	Measure Name	Reported Result
N[C@](CC1c2ccccc2Oc2ccccc21)(C(=O)O)[C@H]1C[C@@H]1C(=O)O	Population Fragmented Nuclei (%)	10%
Nc1nc(CC(=O)Nc2ccc(CCNC[C@H](O)c3ccccc3)cc2)cs1 [MIRABEGRON]	Population Fragmented Nuclei (%)	8%
Cc1ccc(OCC(O)C(C)NC(C)C)c2c1CCC2.Cl (centres undefined)	Population Fragmented Nuclei (%)	11%

Now for a further molecule.
Population Fragmented Nuclei (%) for O=C(NCCNCC(O)COc1ccc(O)cc1)N1CCOCC1.O=C(NCCNCC(O)COc1ccc(O)cc1)N1CCOCC1.O=C(O)/C=C/C(=O)O (centres undefined) [XAMOTEROL FUMARATE] is 9%

###

Quick reference: Population Fragmented Nuclei (%) of the listed items.
Tested on: U2OS
Protocol Description: Multiplex assay against U2OS
Assay type: toxicity, cell-based
Run Parameters: human, 48 h, 10 µM, compound concentration 10 uM, replicate 1
Non-standard residues stand in square brackets, D forms with d. Residues, ends and D or L forms follow the SMILES beside them.
Response body: numeric value in %, unit text excluded.

Example entries begin here.
Compound	Readout Units	Population Fragmented Nuclei (%)
CN(C)C/C=C/C(=O)Nc1ccc(C(=O)N2CCCC(Nc3ncc(Cl)c(-c4c[nH]c5ccccc45)n3)C2)cc1 (configuration not stated)	%	50
S=C(NCCCc1c[nH]cn1)NCCCN(Cc1ccc(Cl)c(Cl)c1)c1ccc(Br)cn1	%	43
Cc1cc(=O)n(C)c2cc(N3C(=O)CC[C@H](NS(=O)(=O)CC(C)C)[C@H]3c3ccc(Cl)cc3)ccc12	%	25
Cc1cc(O)c(-c2ccc([C@@H](C)CN(C)C)cc2)c2c1[nH]c(=O)c1sccc12	%	50
OCCCNc1cc(-c2ccnc(Nc3cccc(Cl)c3)n2)ccn1	%	47

Population Fragmented Nuclei (%) for CC(C)C[C@@H]1NC(=O)[C@@H](C(C)C)NC(=O)[C@@H]2CCCN2C(=O)[C@@H](CC(=O)O)NC(=O)[C@@H](Cc2c[nH]c3ccccc23)NC1=O [BQ-123] (cyclo(L[dW][dD]P[dV])) is 19

Population Fragmented Nuclei (%) for COc1cc(Nc2ncc3c(n2)-c2ccc(Cl)cc2C(c2c(F)cccc2OC)=NC3)ccc1C(=O)O [ALISERTIB] is 34

###

System: U2OS
Protocol Description: Multiplex assay against U2OS
Format: toxicity, cell-based
Run Parameters: human, 12 h, 10 µM, compound concentration 10 uM, replicate 1
Quick reference: Total Cell Count of the listed items.
Reply briefly: the number, and no unit.

Example entries begin here.
Compound	Total Cell Count
CN1CCC(C(=O)c2cccc(NC(=O)c3c(F)cc(F)cc3F)n2)CC1	270
O=c1ccc2ccc(OCCCCN3CCN(c4cccc5sccc45)CC3)cc2[nH]1 [BREXPIPRAZOLE]	220
Cc1cc(NC(=O)NCCN2CCC(O)(Cc3ccccc3)CC2)c2ccccc2n1 [PALOSURAN]	266

Total Cell Count for `Cn1cc(C(=O)OCC2CCN(CCNS(C)(=O)=O)CC2)c2ccccc21` is 252

Total Cell Count for `O=C(Nc1cc(-c2ccccc2)nn1-c1ccccc1F)c1ccc([N+](=O)[O-])cc1` is 293

Total Cell Count for CCCCC[C@H](O)/C=C/[C@H]1[C@H](O)CC(=O)[C@@H]1CCCCCCC(=O)O [ALPROSTADIL] is 222

Total Cell Count for CCC(=O)OCC(=O)[C@@]1(OC(=O)CC)[C@@H](C)C[C@H]2[C@@H]3CCC4=CC(=O)C=C[C@]4(C)[C@@]3(Cl)[C@@H](O)C[C@@]21C [BECLOMETHASONE DIPROPIONATE] is 176

Total Cell Count for COc1cc2nc(N3CCN(C(=O)c4ccco4)CC3)nc(N)c2cc1OC.Cl [PRAZOSIN HYDROCHLORIDE] is 216

Total Cell Count for COc1ccc2[nH]c(I)c(CCNC(C)=O)c2c1 [IODOMELATONIN] is 231

Total Cell Count for `COc1cc2nc(N3CCN(C(=O)COc4c(OC)cccc4C(C)C)CC3)nc(N)c2cc1OC.Cl.Cl` is 233

Total Cell Count for `Cc1cc(=O)n(C)c2cc(N3C(=O)CC[C@H](NS(=O)(=O)CC(C)C)[C@H]3c3ccc(Cl)cc3)ccc12` is 240

###

Test system: Fibroblast
Protocol Description: Multiplex assay against human fibroblast
Type: toxicity, cell-based
Run Parameters: 24 h, 10 µM, compound concentration 10 uM, replicate 2
Non-standard residues stand in square brackets, D forms with d. Residues, ends and D or L forms follow the SMILES beside them.
Exam item: assign t to entries whose Population Apoptotic (%) is below 40% and f to entries at or above 40%. Note that a value of exactly 40% receives f.

// known answers, use as guide
Compound	Class Label
COc1cc2nc(N3CCN(C(=O)c4ccco4)CC3)nc(N)c2cc1OC.Cl [PRAZOSIN HYDROCHLORIDE]	f
CN1CCN(c2ccc(Nc3c4ccccc4nc4ccccc34)cc2)CC1.Cl.Cl.O	f
CN(C)C/C=C/C(=O)Nc1ccc(C(=O)N2CCCC(Nc3ncc(Cl)c(-c4c[nH]c5ccccc45)n3)C2)cc1 (configuration not stated)	f
Nc1nc(CC(=O)Nc2ccc(CCNC[C@H](O)c3ccccc3)cc2)cs1	f
CN1C[C@H](C(=O)N[C@]2(C)O[C@@]3(O)[C@@H]4CCCN4C(=O)[C@H](Cc4ccccc4)N3C2=O)C[C@@H]2c3cccc4[nH]cc(c34)C[C@H]21.CS(=O)(=O)O [DIHYDROERGOTAMINE MESYLATE]	t
COc1c(Nc2ccc(S(C)(=O)=O)nc2C)ncnc1OC1CCN(C(=O)OC(C)C)CC1	t
CN(C)C(=O)Cn1cc(-c2ccc(-c3nnc4ccccn34)cc2)cn1	t
Cc1ccc(OCC(O)C(C)NC(C)C)c2c1CCC2.Cl (configuration not stated)	t

Threshold test, Population Apoptotic (%) < 40%: CC(C)C[C@@H]1NC(=O)[C@@H](C(C)C)NC(=O)[C@@H]2CCCN2C(=O)[C@@H](CC(=O)O)NC(=O)[C@@H](Cc2c[nH]c3ccccc23)NC1=O [BQ-123] (cyclo(L[dW][dD]P[dV]))
t

Threshold test, Population Apoptotic (%) < 40%: `COc1cc(OC2CCN(C(C)=O)CC2)ccc1C(=O)N1CCC(N2C(=O)OCc3ccccc32)CC1`
f

Threshold test, Population Apoptotic (%) < 40%: `COc1cc2nc(N3CCN(C(=O)COc4c(OC)cccc4C(C)C)CC3)nc(N)c2cc1OC.Cl.Cl`
t

Threshold test, Population Apoptotic (%) < 40%: `CCc1nn2c(C)cc(C)nc2c1Cc1ccc(-c2nnc(C3CCNCC3)o2)cc1`
f

Threshold test, Population Apoptotic (%) < 40%: `Cc1cc(NC(=O)NCCN2CCC(O)(Cc3ccccc3)CC2)c2ccccc2n1`
f

###

Test system: Fibroblast
Protocol Description: Multiplex assay against human fibroblast
Assay type: toxicity, cell-based
Run Parameters: 12 h, 10 µM, compound concentration 10 uM, replicate 2
Quick reference: Population Apoptotic (%) of the listed items.
Response body: numeric value in %, unit text excluded.

Compound	Population Apoptotic (%)
Cc1nn(C)c2nc(NNC(=O)Nc3cc(Cl)nc(Cl)c3)cc(C(C)C)c12	21
CN(C)C/C=C/C(=O)Nc1ccc(C(=O)N2CCCC(Nc3ncc(Cl)c(-c4c[nH]c5ccccc45)n3)C2)cc1 (stereo unspecified)	48
Cl.Cl.OCCOCCN1CCN(C(c2ccccc2)c2ccc(Cl)cc2)CC1 (stereo unspecified) [HYDROXYZINE HYDROCHLORIDE]	40
COc1cc(C(=O)N2CC[C@@H](O)[C@@H](N)C2)cc2nc(-c3cc4ccccc4n3CC3CC3)n(C)c12.Cl	48
CC(C)(O)C(=O)N1CCN(c2ccc(C(F)(F)F)c(C3=C(c4c[nH]c5ccccc45)C(=O)NC3=O)c2)CC1	35

Population Apoptotic (%) for COc1ccc2c(c1OCc1ccccc1)C[C@@H](C(=O)O)N(C(=O)C(c1ccccc1)c1ccccc1)C2 [OLODANRIGAN] is 34

Population Apoptotic (%) for `CN1CCN(c2ccc(Nc3c4ccccc4nc4ccccc34)cc2)CC1.Cl.Cl.O` is 66

###

Quick reference: Population Membrane Permeable-Phenotype (%) of the listed items.
Test system: U2OS
Protocol Description: Multiplex assay against U2OS
Assay type: toxicity, cell-based
Run Parameters: human, 24 h, 10 µM, compound concentration 10 uM, replicate 2
Non-standard residues stand in square brackets, D forms with d. Residues, ends and D or L forms follow the SMILES beside them.
Response body: numeric value in %, unit text excluded.

Molecule	Reported Result
COc1cc2nc(N3CCN(C(=O)COc4c(OC)cccc4C(C)C)CC3)nc(N)c2cc1OC.Cl.Cl	49
COCCn1c(C)c(C)s/c1=N\C(=O)C1C(C)(C)C1(C)C	10

Population Membrane Permeable-Phenotype (%) for `Cc1cc(-c2ccc3c(c2)CC[C@H]3N2CC3(CCN(C(=O)Cc4cn5cc(C)sc5n4)CC3)C2)ncn1` is 11

Population Membrane Permeable-Phenotype (%) for CC(C)C[C@@H]1NC(=O)[C@@H](C(C)C)NC(=O)[C@@H]2CCCN2C(=O)[C@@H](CC(=O)O)NC(=O)[C@@H](Cc2c[nH]c3ccccc23)NC1=O [BQ-123] (cyclo(L[dW][dD]P[dV])) is 6

Population Membrane Permeable-Phenotype (%) for CN1CCN2c3ccccc3Cc3ccccc3C2C1.Cl (stereo not drawn) [MIANSERIN HYDROCHLORIDE] is 7

Population Membrane Permeable-Phenotype (%) for `O=c1nc2[nH]c3ccccc3nc-2c(=O)[nH]1` is 5

Population Membrane Permeable-Phenotype (%) for `C[C@H](NC(=O)CNC(=O)c1cccc(Cl)c1)c1ccccc1` is 4

Population Membrane Permeable-Phenotype (%) for `Cc1cc(=O)n(C)c2cc(N3C(=O)CC[C@H](NS(=O)(=O)CC(C)C)[C@H]3c3ccc(Cl)cc3)ccc12` is 36
